Could you please report measured Specific signal at 500 pg/mL for the items listed next?
target: T1, recombinant purified FRα (ECL assay calibrator) (human, UniProt P15328 25-234); assay: ECL sandwich, FRα calibrator; capture 26A9.C4; binder = detection Ab
T1 construct: Calibrator of the ECL sandwich assays; also called FRα calibrator; FRα standard
T1 sequence (P15328 25-234 limits assumed): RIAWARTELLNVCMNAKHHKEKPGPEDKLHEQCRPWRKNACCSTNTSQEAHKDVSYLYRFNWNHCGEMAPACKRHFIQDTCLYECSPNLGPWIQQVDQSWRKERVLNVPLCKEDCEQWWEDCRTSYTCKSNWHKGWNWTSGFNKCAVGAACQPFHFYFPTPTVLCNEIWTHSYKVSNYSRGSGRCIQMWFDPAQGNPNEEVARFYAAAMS
Returns: the value as a bare number; no unit string appended.

Field Specific signal at 500 pg/mL (entry Monoclonal antibody 1D2.D8.G10 (antibody, mouse IgG1, V domains shown, Murine IgG1 kappa from hybridoma; also called 1D2.D8.G0; ATCC PTA-123098) VH: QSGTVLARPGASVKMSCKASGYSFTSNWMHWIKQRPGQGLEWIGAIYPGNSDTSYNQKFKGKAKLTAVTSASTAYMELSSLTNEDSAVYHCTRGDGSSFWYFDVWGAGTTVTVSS VL: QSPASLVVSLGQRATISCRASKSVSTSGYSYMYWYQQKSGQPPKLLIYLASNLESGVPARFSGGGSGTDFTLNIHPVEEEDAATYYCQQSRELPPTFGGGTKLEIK ) reads 86

Field Specific signal at 500 pg/mL (entry Monoclonal antibody 19D4.B7 (antibody, mouse IgG2a, V domains shown, SULFO-TAG conjugated when used as detection antibody in the ECL assay; also called ATCC PTA-11884) VH: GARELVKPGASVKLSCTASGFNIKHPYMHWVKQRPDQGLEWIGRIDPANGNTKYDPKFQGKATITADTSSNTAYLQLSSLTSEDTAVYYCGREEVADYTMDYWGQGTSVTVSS VL: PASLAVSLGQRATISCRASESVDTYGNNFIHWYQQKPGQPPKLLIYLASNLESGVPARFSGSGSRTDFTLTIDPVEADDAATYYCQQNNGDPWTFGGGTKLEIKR ) reads 2630

Field Specific signal at 500 pg/mL (entry Monoclonal antibody 1A8.G11.E7 (antibody, mouse IgG1, V domains shown, Murine IgG1 kappa from hybridoma; also called ATCC PTA-123100) VH: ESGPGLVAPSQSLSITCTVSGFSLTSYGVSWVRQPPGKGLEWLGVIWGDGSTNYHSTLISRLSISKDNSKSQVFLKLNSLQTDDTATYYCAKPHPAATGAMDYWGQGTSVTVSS VL: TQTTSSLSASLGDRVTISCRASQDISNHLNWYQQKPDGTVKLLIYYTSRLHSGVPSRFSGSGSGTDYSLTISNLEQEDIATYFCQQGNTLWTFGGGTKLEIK ) reads 80
